Biological target: SARS-CoV-2 spike protein receptor binding domain (isolated RBD) (SARS-CoV-2, UniProt P0DTC2 319-541)
Assay readout: kon (M⁻¹ s⁻¹)
Could you give me the number in M⁻¹ s⁻¹? Just the number is fine.

binder="IMPI-017 (antibody, V domains shown) VH: EVQLVESGGGLIQPGGSLRLSCAAAGLTVSSNYMNWVRQVPGKGLEWVSVIYSGGSTYYADSVKGRFTISRDNSKNTLYLQMNSLRAEDTAVYYCARDLGTLGMDVWGQGTTVTVSS VL: DIQLTQSPSFLSASVGDRVTITCWASQGISTYLAWYQQKPGKAPKLLIYAASTLQSGVPSRFSGSGSGTEFTLTISSLQPEDFATYYCQQLNSYLPTFGQGTKVEIK" endpoint_result=522000

So what's the measured kon for this one? IMPI-021 (antibody, V domains shown) VH: EVQLVESGGGLIQPGGSLRLSCAASGVTVSSNYMSWVRQAPGKGLEWVSVIYSGGSTFYADSVKGRFTISRDNSKNTLYLQMNSLRAEDTAVYYCARDLSYYGMDVWGQGTTVTVSS VL: DIQLTQSPSFLSASVGDRVTITCWASQGISSYLAWYQQKPGKAPKLLIYAASTLQSGVPSKFSGSGSGTEFTLTISSLQPEDFATYYCQQLNSYPCSFGQGTKLEIK 548000
